B1: Ribonuclease, P00648 (parent)
chain: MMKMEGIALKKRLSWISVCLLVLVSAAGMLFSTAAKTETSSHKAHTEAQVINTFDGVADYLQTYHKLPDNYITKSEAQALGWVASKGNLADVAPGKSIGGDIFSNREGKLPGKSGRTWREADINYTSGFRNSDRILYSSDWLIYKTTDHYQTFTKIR

variants of: B1; conditions: Bacillus amyloliquefaciens; pH 6.3; 25 °C; Urea; Fluorescence; MES 1.00 M; NaCl 613 mM; reversible: yes; structure 1BNI; whole UniProt chain shown
Measured ddG of mutation (higher = less stable) of individual entries

Use the examples below as a reference point.
{"VARIANT_KEY": "Y60F Y64F", "ddG of mutation (higher = less stable)": "1.23 kcal/mol"}
{"VARIANT_KEY": "Y60F", "ddG of mutation (higher = less stable)": "0.63 kcal/mol"}
{"VARIANT_KEY": "Y60A Y64A", "ddG of mutation (higher = less stable)": "4.76 kcal/mol"}
{"VARIANT_KEY": "Y64F", "ddG of mutation (higher = less stable)": "0.58 kcal/mol"}

Endpoint output: ddG of mutation (higher = less stable) of Y60A . Value?
3.69 kcal/mol
